speed of sound overview
conditions: 298.15 K; 100 kPa; Liquid; Frequency=3 MHz; Sing-around technique in a fixed-path interferometer
Your answer is read as m/s, so omit the unit and give the number.

Here is how some molecules turned out for speed of sound.
CCCC(=O)O	1177
CCOC(=O)OCC [diethyl carbonate]	1177
CCO	1142
CCC(=O)O	1147

[in] Specify reported speed of sound for the molecule shown: `CCCCCCC(=O)O`
[out] 1278

---

conditions: 298.15 K; 100 kPa; Liquid; Vibrating tube method
outcome_measure: mass density (kg/m3)
Your answer is read as kg/m3, so omit the unit and give the number.

CCC(=O)O	988.5

[in] Specify reported mass density for the compound shown: `CCO`
[out] 785.2

[in] Specify reported mass density for the compound shown: `CCCCCCC(=O)O`
[out] 913.5

[in] Specify reported mass density for the compound shown: CCOC(=O)OCC [diethyl carbonate]
[out] 969.3

[in] Specify reported mass density for the compound shown: `CCCC(=O)O`
[out] 952.8
